# System: NCI/ADR-RES
# experiment notes: Antiproliferative activity against human NCI/ADR-RES cells assessed as cell growth at 10 uM incubated for 48 hrs by sulforhodamine B assay relative to control
# Format: functional
# test conditions: read-out: Activity
Examples of compounds with documented growth at 10 µM follow.
attribute measured: growth at 10 µM

[[record]]
line_notation = "COc1cc(CNC(=O)CCCC/C=C/C(C)C)ccc1OCc1nnc(SCCc2c[nH]c3ccccc23)o1"
reported_value = "56.5%"

[[record]]
line_notation = "COc1cc(CNC(=O)CCCC/C=C/C(C)C)ccc1OCc1nnc(Nc2ccccc2F)o1"
reported_value = "43.4%"

[[record]]
line_notation = "COc1cc(CNC(=O)CCCC/C=C/C(C)C)ccc1OCc1nnc(Nc2cccc(Br)c2)o1"
reported_value = "87%"

[[record]]
line_notation = "COc1cc(CNC(=O)CCCC/C=C/C(C)C)ccc1OCc1nnc(Nc2ccc([N+](=O)[O-])cc2)o1"
reported_value = "79.6%"


---

Quick reference: growth at 10 µM of the listed items.
# Test system: SNB-75
# experiment notes: Antiproliferative activity against human SNB-75 cells assessed as cell growth at 10 uM incubated for 48 hrs by sulforhodamine B assay relative to control
# Assay type: functional
# test conditions: read-out: Activity
attribute measured: growth at 10 µM

[[record]]
line_notation = "COc1cc(CNC(=O)CCCC/C=C/C(C)C)ccc1OCc1nnc(Nc2ccccc2F)o1"
attribute_measured = "growth at 10 µM"
reported_value = "57.8%"

[[record]]
line_notation = "COc1cc(CNC(=O)CCCC/C=C/C(C)C)ccc1OCc1nnc(Nc2cccc(Br)c2)o1"
attribute_measured = "growth at 10 µM"
reported_value = "83.5%"

[[record]]
line_notation = "COc1cc(CNC(=O)CCCC/C=C/C(C)C)ccc1OCc1nnc(Nc2ccc([N+](=O)[O-])cc2)o1"
attribute_measured = "growth at 10 µM"
reported_value = "48.7%"

[[record]]
line_notation = "COc1cc(CNC(=O)CCCC/C=C/C(C)C)ccc1OCc1nnc(SCCc2c[nH]c3ccccc23)o1"
attribute_measured = "growth at 10 µM"
reported_value = "83.1%"


---

# Tested on: SK-MEL-5
# experiment notes: Antiproliferative activity against human SK-MEL-5 cells assessed as cell growth at 10 uM incubated for 48 hrs by sulforhodamine B assay relative to control
# Format: functional
# test conditions: read-out: Activity
attribute measured: growth at 10 µM (%)

[[record]]
line_notation = "COc1cc(CNC(=O)CCCC/C=C/C(C)C)ccc1OCc1nnc(SCCc2c[nH]c3ccccc23)o1"
endpoint_unit = "%"
reported_value = 105

[[record]]
line_notation = "COc1cc(CNC(=O)CCCC/C=C/C(C)C)ccc1OCc1nnc(Nc2ccc([N+](=O)[O-])cc2)o1"
endpoint_unit = "%"
reported_value = 46.3

[[record]]
line_notation = "COc1cc(CNC(=O)CCCC/C=C/C(C)C)ccc1OCc1nnc(Nc2ccccc2F)o1"
endpoint_unit = "%"
reported_value = 86.6

[[record]]
line_notation = "COc1cc(CNC(=O)CCCC/C=C/C(C)C)ccc1OCc1nnc(Nc2cccc(Br)c2)o1"
endpoint_unit = "%"
reported_value = 89.8


---

# System: SNB-19
# experiment notes: Antiproliferative activity against human SNB-19 cells assessed as cell growth at 10 uM incubated for 48 hrs by sulforhodamine B assay relative to control
# Assay type: functional
# test conditions: read-out: Activity
Documented growth at 10 µM across a set of molecules
attribute measured: growth at 10 µM (%)

[[record]]
line_notation = "COc1cc(CNC(=O)CCCC/C=C/C(C)C)ccc1OCc1nnc(SCCc2c[nH]c3ccccc23)o1"
attribute_measured = "growth at 10 µM"
reported_value = 77

[[record]]
line_notation = "COc1cc(CNC(=O)CCCC/C=C/C(C)C)ccc1OCc1nnc(Nc2ccc([N+](=O)[O-])cc2)o1"
attribute_measured = "growth at 10 µM"
reported_value = 54

[[record]]
line_notation = "COc1cc(CNC(=O)CCCC/C=C/C(C)C)ccc1OCc1nnc(Nc2ccccc2F)o1"
attribute_measured = "growth at 10 µM"
reported_value = 58.5

[[record]]
line_notation = "COc1cc(CNC(=O)CCCC/C=C/C(C)C)ccc1OCc1nnc(Nc2cccc(Br)c2)o1"
attribute_measured = "growth at 10 µM"
reported_value = 99.5


---

# growth at 10 µM listing for each entry below
# Tested on: NCI-H23
# experiment notes: Antiproliferative activity against human NCI-H23 cells assessed as cell growth at 10 uM incubated for 48 hrs by sulforhodamine B assay relative to control
# Assay type: functional
# test conditions: read-out: Activity
attribute measured: growth at 10 µM (%)

[[record]]
line_notation = "COc1cc(CNC(=O)CCCC/C=C/C(C)C)ccc1OCc1nnc(Nc2ccccc2F)o1"
attribute_measured = "growth at 10 µM"
endpoint_unit = "%"
reported_value = 63.8

[[record]]
line_notation = "COc1cc(CNC(=O)CCCC/C=C/C(C)C)ccc1OCc1nnc(Nc2cccc(Br)c2)o1"
attribute_measured = "growth at 10 µM"
endpoint_unit = "%"
reported_value = 66

[[record]]
line_notation = "COc1cc(CNC(=O)CCCC/C=C/C(C)C)ccc1OCc1nnc(Nc2ccc([N+](=O)[O-])cc2)o1"
attribute_measured = "growth at 10 µM"
endpoint_unit = "%"
reported_value = 62.1

[[record]]
line_notation = "COc1cc(CNC(=O)CCCC/C=C/C(C)C)ccc1OCc1nnc(SCCc2c[nH]c3ccccc23)o1"
attribute_measured = "growth at 10 µM"
endpoint_unit = "%"
reported_value = 66.6


---

# System: MDA-MB-231
# experiment notes: Antiproliferative activity against human MDA-MB-231/ATCC cells assessed as cell growth at 10 uM incubated for 48 hrs by sulforhodamine B assay relative to control
# Type: functional
# test conditions: read-out: Activity
attribute measured: growth at 10 µM (%)

[[record]]
line_notation = "COc1cc(CNC(=O)CCCC/C=C/C(C)C)ccc1OCc1nnc(Nc2cccc(Br)c2)o1"
endpoint_unit = "%"
reported_value = 78.3

[[record]]
line_notation = "COc1cc(CNC(=O)CCCC/C=C/C(C)C)ccc1OCc1nnc(SCCc2c[nH]c3ccccc23)o1"
endpoint_unit = "%"
reported_value = 70.6

[[record]]
line_notation = "COc1cc(CNC(=O)CCCC/C=C/C(C)C)ccc1OCc1nnc(Nc2ccc([N+](=O)[O-])cc2)o1"
endpoint_unit = "%"
reported_value = 67.1

[[record]]
line_notation = "COc1cc(CNC(=O)CCCC/C=C/C(C)C)ccc1OCc1nnc(Nc2ccccc2F)o1"
endpoint_unit = "%"
reported_value = 63.9


---

# Test system: NCI-H460
# experiment notes: Antiproliferative activity against human NCI-H460 cells assessed as cell growth inhibition measured after 72 hrs by crystal violet staining based assay
# Format: functional
# test conditions: NCI-H460, 72 h
attribute measured: IC50 (µM)

[[record]]
line_notation = "COc1cc(CNC(=O)CCCC/C=C/C(C)C)ccc1OCc1nnc(Nc2ccccc2F)o1"
subject_of_test = "NCI-H460"
reported_value = 14.4

[[record]]
line_notation = "COc1cc(CNC(=O)CCCC/C=C/C(C)C)ccc1OCc1nnc(Nc2ccc([N+](=O)[O-])cc2)o1"
subject_of_test = "NCI-H460"
reported_value = 5.41

[[record]]
line_notation = "COc1cc(CNC(=O)CCCC/C=C/C(C)C)ccc1O"
subject_of_test = "NCI-H460"
reported_value = 30.7

[[record]]
line_notation = "COc1cc(CNC(=O)CCCC/C=C/C(C)C)ccc1OCc1nnc(SCCc2c[nH]c3ccccc23)o1"
subject_of_test = "NCI-H460"
reported_value = 9.89

[[record]]
line_notation = "COc1cccc2c1C(=O)c1c(O)c3c(c(O)c1C2=O)C[C@@](O)(C(=O)CO)C[C@@H]3O[C@H]1C[C@H](N)[C@H](O)[C@H](C)O1"
subject_of_test = "NCI-H460"
reported_value = 0.00429


---

# Test system: SK-OV-3
# experiment notes: Antiproliferative activity against human SK-OV-3 cells assessed as cell growth inhibition measured after 72 hrs by crystal violet staining based assay
# Assay type: functional
# test conditions: SK-OV-3, 72 h
attribute measured: IC50 (µM)

[[record]]
line_notation = "COc1cc(CNC(=O)CCCC/C=C/C(C)C)ccc1OCc1nnc(Nc2ccccc2F)o1"
attribute_measured = "IC50"
endpoint_unit = "µM"
reported_value = 12.5

[[record]]
line_notation = "COc1cccc2c1C(=O)c1c(O)c3c(c(O)c1C2=O)C[C@@](O)(C(=O)CO)C[C@@H]3O[C@H]1C[C@H](N)[C@H](O)[C@H](C)O1"
attribute_measured = "IC50"
endpoint_unit = "µM"
reported_value = 0.0258

[[record]]
line_notation = "COc1cc(CNC(=O)CCCC/C=C/C(C)C)ccc1O"
attribute_measured = "IC50"
endpoint_unit = "µM"
reported_value = 22

[[record]]
line_notation = "COc1cc(CNC(=O)CCCC/C=C/C(C)C)ccc1OCc1nnc(SCCc2c[nH]c3ccccc23)o1"
attribute_measured = "IC50"
endpoint_unit = "µM"
reported_value = 31.4

[[record]]
line_notation = "COc1cc(CNC(=O)CCCC/C=C/C(C)C)ccc1OCc1nnc(Nc2ccc([N+](=O)[O-])cc2)o1"
attribute_measured = "IC50"
endpoint_unit = "µM"
reported_value = 6.4

